Recorded molar ellipticity at 222 nm, [Θ]222 for the following compounds
assay: Far-UV CD of isolated peptides in aqueous solution (helicity); type: physicochemical; settings: far-UV CD, 5 °C, 50 mM phosphate pH 6.8

Mol smiles	molar ellipticity at 222 nm, [Θ]222
CC(=O)N[C@@H](CCC(=O)O)C(=O)N[C@@H](CC(=O)O)C(=O)N[C@@H](Cc1ccccc1)C(=O)N[C@@H](CC(=O)O)C(=O)N[C@@H](CC(=O)O)C(=O)N[C@@H](CC(C)C)C(=O)N[C@@H](Cc1c[nH]c2ccccc12)C(=O)N[C@@H](CCCCN)C(=O)N[C@@H](CC(C)C)C(=O)N[C@@H](CC(C)C)C(=O)N1CCC[C@H]1C(=O)N[C@@H](CCC(=O)O)C(=O)N[C@@H](CC(N)=O)C(N)=O	−2811 deg cm^2 dmol^−1
CC(=O)N[C@@H](CCC(=O)O)C(=O)N[C@H](C(=O)N[C@@H](Cc1ccccc1)C(=O)N[C@@H](COP(=O)(O)O)C(=O)N[C@@H](CC(=O)O)C(=O)N[C@@H](CC(C)C)C(=O)N[C@@H](Cc1c[nH]c2ccccc12)C(=O)N[C@@H](CCCCN)C(=O)N[C@@H](CC(C)C)C(=O)N[C@@H](CC(C)C)C(=O)N1CCC[C@H]1C(=O)N[C@@H](CCC(=O)O)C(=O)N[C@@H](CC(N)=O)C(N)=O)[C@@H](C)O	−4614 deg cm^2 dmol^−1

----------
Listed here: items and their measured m (m-value of TFE titration).
experiment: TFE titrations monitored by CD (helical population); type: physicochemical; conditions: CD at 222 nm, 5 °C, 50 mM phosphate pH 6.8, peptide 40 μM; two-state fit, ± fitting error

Compound	m (m-value of TFE titration)
CC(=O)N[C@@H](CCC(=O)O)C(=O)N[C@H](C(=O)N[C@@H](Cc1ccccc1)C(=O)N[C@@H](CCC(=O)O)C(=O)N[C@@H](CC(=O)O)C(=O)N[C@@H](CC(C)C)C(=O)N[C@@H](Cc1c[nH]c2ccccc12)C(=O)N[C@@H](CCCCN)C(=O)N[C@@H](CC(C)C)C(=O)N[C@@H](CC(C)C)C(=O)N1CCC[C@H]1C(=O)N[C@@H](CCC(=O)O)C(=O)N[C@@H](CC(N)=O)C(N)=O)[C@@H](C)O [P53-E20]	231 ± 141 cal mol^−1(%)^−1
CC(=O)N[C@@H](CCC(=O)O)C(=O)N[C@@H](CC(=O)O)C(=O)N[C@@H](Cc1ccccc1)C(=O)N[C@@H](CCC(=O)O)C(=O)N[C@@H](CC(=O)O)C(=O)N[C@@H](CC(C)C)C(=O)N[C@@H](Cc1c[nH]c2ccccc12)C(=O)N[C@@H](CCCCN)C(=O)N[C@@H](CC(C)C)C(=O)N[C@@H](CC(C)C)C(=O)N1CCC[C@H]1C(=O)N[C@@H](CCC(=O)O)C(=O)N[C@@H](CC(N)=O)C(N)=O [P53-D18-E20]	112 ± 70 cal mol^−1(%)^−1
CC(=O)N[C@@H](CCC(=O)O)C(=O)N[C@@H](CC(=O)O)C(=O)N[C@@H](Cc1ccccc1)C(=O)N[C@@H](CC(=O)O)C(=O)N[C@@H](CC(=O)O)C(=O)N[C@@H](CC(C)C)C(=O)N[C@@H](Cc1c[nH]c2ccccc12)C(=O)N[C@@H](CCCCN)C(=O)N[C@@H](CC(C)C)C(=O)N[C@@H](CC(C)C)C(=O)N1CCC[C@H]1C(=O)N[C@@H](CCC(=O)O)C(=O)N[C@@H](CC(N)=O)C(N)=O [P53-D18-D20]	263 ± 47 cal mol^−1(%)^−1
